assay: qHTS of pediatric cancer cell lines to identify multiple opportunities for drug repurposing: Primary screen for OHS-50 cells (AID 1347103); details: OHS-50 osteosarcoma viability, CellTiter-Glo luminescence, 48 h; series mostly up to 57.3 µM; note: nearly all actives have a fitted effect of over 40% in size; note: potency is the fitted concentration of half-maximal effect
Inconclusive results are not listed. Calls of active or inactive are those of the source. Calls come from the whole dose curve; as a rule, active = well fitted cell-killing curve with a large enough effect; inconclusive = small, poorly fitted or top-dose-only effect; inactive = no such curve, though single readings can be large or run the other way.
property label: Potency

molecule | property label | result
NC[C@H]1O[C@H](O[C@H]2[C@H](O)[C@@H](O[C@H]3O[C@H](CO)[C@@H](O)[C@H](N)[C@H]3O)[C@H](N)C[C@@H]2N)[C@H](N)[C@@H](O)[C@@H]1O | Potency | inactive
CCCC(=O)Nc1ccc(OCC(O)CNC(C)C)c(C(C)=O)c1 (centres undefined) | Potency | inactive
CCOC(=O)COc1ccc2c(C)c(CCN(CC)CC)c(=O)oc2c1Cl | Potency | inactive
CC(C)n1nc(-c2cc3cc(O)ccc3[nH]2)c2c(N)ncnc21 | Potency | 0.437 µM (active)
CC(=O)CC(c1ccc([N+](=O)[O-])cc1)c1c(O)c2ccccc2oc1=O (centres undefined) | Potency | inactive
NC(=O)CC[C@@H]1NC(=O)[C@H](Cc2ccccc2)NC(=O)[C@H](Cc2ccc(O)cc2)NC(=O)CCSSC[C@@H](C(=O)N2CCC[C@H]2C(=O)N[C@@H](CCCN=C(N)N)C(=O)NCC(N)=O)NC(=O)[C@H](CC(N)=O)NC1=O | Potency | inactive
COc1ccc(OC)c(C(O)CNC(=O)CN)c1 (centres undefined) | Potency | inactive
CCN(CC)CCOC(=O)C(c1ccccc1)C1CCCCC1 (centres undefined) | Potency | 21.9 µM (active)
CCCCS(=O)(=O)N[C@@H](Cc1ccc(OCCCCC2CCNCC2)cc1)C(=O)O | Potency | inactive

---

system: PC49; experiment: qHTS profiling for inhibitors of Plasmodium falciparum proliferation (AID 504749); note: nearly all actives have a fitted effect of over 60% in size; conditions: P. falciparum in erythrocytes, SYBR Green DNA, 72 h; series mostly up to 28.7 µM
Records with an inconclusive call do not appear. The source made the active and inactive calls. Calls come from the whole dose curve; as a rule, active = well fitted inhibition curve with a large enough effect; inconclusive = small, poorly fitted or top-dose-only effect; inactive = flat fitted curve, though single readings scatter.
Outcomes: active, inactive

compound | class
CN1CCN(C(c2ccccc2)c2ccccc2)CC1 | inactive
Cc1cccn2c(=O)c(-c3nnn[nH]3)cnc12 | inactive
NC(CO)(CO)CO | inactive
CCCCOc1ccc(C(=O)CCN2CCCCC2)cc1 | inactive
CN(C)CC/C=C1\c2ccccc2Sc2ccc(Cl)cc21 | active
CCCCCCCCCCCCCCCCCC(=O)OCC(O)CO (configuration not stated) | inactive
Oc1c(I)cc(Cl)c2cccnc12 | inactive

---

test system: PA-1; experiment: Primary qHTS to identify gynecologic anti-cancer compounds using libraries of approved drugs and bioactive compounds (AID 1345084); details: Gynecologic cancer cell panel viability, ATPlite luminescence, 48 h; series mostly up to 57.5 µM; note: nearly all actives have a fitted effect of over 55% in size
Results filed as inconclusive are left out. Active and inactive are the calls of the source. The call rests on the fitted dose curve; in most records, active means well fitted cell-killing curve with a large enough effect; inconclusive means small, poorly fitted or top-dose-only effect, or effect the other way; inactive means flat fitted curve, though single readings scatter.
Possible outcomes: 1 (active), -1 (inactive)

compound | class
CC(=O)OCC(=O)[C@@]1(OC(C)=O)[C@@H](C)C[C@H]2[C@@H]3C[C@H](F)C4=CC(=O)C=C[C@]4(C)[C@@]3(F)[C@@H](O)C[C@@]21C | -1
CCCCN1CCCC1C(=O)Nc1c(C)cc(C)cc1C (stereo unspecified) | -1
Clc1ccc2c(c1)CCc1cccnc1C2=C1CCNCC1 | -1
CCOC(=O)/C=C(C)/C=C/C=C(C)/C=C/c1c(C)cc(OC)c(C)c1C | -1
C/C=C(/C(=C/C)c1ccc(O)cc1)c1ccc(O)cc1 | -1
Cc1nc2n(c(=O)c1CCN1CCC(c3noc4cc(F)ccc34)CC1)CCC[C@H]2O | -1
Cc1c(F)c(N2CCNC(C)C2)cc2c1c(=O)c(C(=O)O)cn2C1CC1 (stereo unspecified) | -1
COc1cc(OC)cc(OC)c1 | -1
CCC(=O)c1c(O)cc(O)cc1O | -1
CC1(C)O[C@@H]2C[C@H]3[C@@H]4CCC5=CC(=O)CC[C@]5(C)[C@@]4(F)[C@@H](O)C[C@]3(C)[C@]2(C(=O)CCl)O1 | -1
COc1c(C)c2c(c(O)c1C/C=C(\C)CCC(=O)O)C(=O)OC2 | 1
CC(C)NC[C@@H](O)COc1cccc2ccccc12 | -1
c1ccc(CNCCNCc2ccccc2)cc1 | -1
O=C1c2ccccc2C(=O)C1c1ccccc1 | -1
CC[C@@H](CO)NCCN[C@@H](CC)CO | -1
C[C@H]1[C@H](NC(=O)/C(=N/OC(C)(C)C(=O)O)c2csc(N)n2)C(=O)N1S(=O)(=O)O (stereo in doubt) | -1
CC(C)(C)NC(=O)[C@@H]1CN(Cc2cccnc2)CCN1C[C@@H](O)C[C@@H](Cc1ccccc1)C(=O)N[C@H]1c2ccccc2C[C@H]1O | -1
COc1cc2c(cc1OC)[C@@H]1CC(=O)[C@@H](CC(C)C)CN1CC2 | -1
C[C@H](O)C(=O)Nc1c(I)c(C(=O)NC(CO)CO)c(I)c(C(=O)NC(CO)CO)c1I | -1
CC(C)(C)CC(C)(C)c1ccc(OCCOCC[N+](C)(C)Cc2ccccc2)cc1 | 1
OC[C@H]1O[C@H](O[C@]2(CCl)O[C@H](CCl)[C@@H](O)[C@@H]2O)[C@H](O)[C@@H](O)[C@H]1Cl | -1
